biological target: Transient receptor potential cation channel subfamily V member 1 (Homo sapiens) (UniProt Q8NER1); experiment: HTS Assay for Compounds that Act as Potentiators of the Vanilloid Receptor 1; settings: TRPV1-expressing cells, Fluo-8 calcium influx, capsaicin EC20 potentiation; at 8.33 µM; hits give high values; also: 0% is about no effect
Sequence (Q8NER1 whole entry, looked up): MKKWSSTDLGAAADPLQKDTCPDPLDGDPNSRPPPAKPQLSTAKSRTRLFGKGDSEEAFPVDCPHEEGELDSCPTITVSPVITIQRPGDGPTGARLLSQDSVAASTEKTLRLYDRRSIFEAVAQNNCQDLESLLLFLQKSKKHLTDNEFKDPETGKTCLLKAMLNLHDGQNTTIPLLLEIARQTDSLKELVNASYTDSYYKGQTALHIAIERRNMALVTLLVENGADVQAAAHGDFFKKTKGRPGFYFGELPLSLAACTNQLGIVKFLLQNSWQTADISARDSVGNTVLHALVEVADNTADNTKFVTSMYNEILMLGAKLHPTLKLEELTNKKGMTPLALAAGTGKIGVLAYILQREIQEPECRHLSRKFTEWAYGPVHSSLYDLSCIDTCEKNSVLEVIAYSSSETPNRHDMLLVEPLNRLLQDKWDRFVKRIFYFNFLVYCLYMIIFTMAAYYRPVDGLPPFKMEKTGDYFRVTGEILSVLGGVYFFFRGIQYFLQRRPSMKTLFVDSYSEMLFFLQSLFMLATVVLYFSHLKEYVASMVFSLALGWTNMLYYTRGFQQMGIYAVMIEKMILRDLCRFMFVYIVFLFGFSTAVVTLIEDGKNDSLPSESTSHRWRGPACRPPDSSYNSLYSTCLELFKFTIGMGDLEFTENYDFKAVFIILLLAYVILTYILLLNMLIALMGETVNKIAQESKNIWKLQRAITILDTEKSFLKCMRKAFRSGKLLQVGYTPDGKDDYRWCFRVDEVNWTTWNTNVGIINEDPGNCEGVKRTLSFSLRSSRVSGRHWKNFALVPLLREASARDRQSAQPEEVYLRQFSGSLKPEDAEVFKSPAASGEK
In all, about 320,000 compounds went through this assay and about 55 (0.02%) were called active. Roughly 3% stayed inconclusive and do not appear here. The sample as a whole holds a higher share of actives than the screen did.
Items are presented alongside their recorded potentiation.
Write the number in % without appending the unit.

// solved cases for potentiation follow
[[record]]
compound = "O=S(=O)(Nc1cc(Cl)ccc1N1CCOCC1)c1ccccc1Cl"
reportedmeasurement = 28.9

[[record]]
compound = "c1ccc2cc(CCCc3cc4ccccc4cn3)ncc2c1"
reportedmeasurement = -8.54

[[record]]
compound = "CN(CC(=O)NC1CCN(Cc2ccccc2)CC1)S(=O)(=O)c1ccc(Cl)s1"
reportedmeasurement = 6.87


Lab note: `COc1ccccc1CNC(=O)COC(=O)c1sc(C)nc1C` gave potentiation of 1.52

Lab note: `COc1cc(OC)c(C(=S)N2CCCC2)cc1OC` gave potentiation of -20.3

Lab note: `CN(C)S(=O)(=O)c1cccc(NC(=O)COc2ccc3ccccc3c2)c1` gave potentiation of 2.88

Lab note: `O=C(COC(=O)c1ccccc1)c1ccc2c(c1)OCCO2` gave potentiation of 3.76

Lab note: `O=C(Nc1ccc2c(c1)OCCO2)C1CCCC1` gave potentiation of -1.56

Lab note: `O=C(O)c1ccccc1N=N/C(=N/Nc1cc(S(=O)(=O)O)ccc1O)c1ccccc1` gave potentiation of 1.2

Lab note: `N#Cc1ccccc1S(=O)(=O)N1CCN(Cc2c(O)ccc3ccccc23)CC1` gave potentiation of 0.42

Lab note: `Cc1ccc(OCC(=O)N2CCN(S(=O)(=O)c3ccc(Cl)s3)CC2)cc1C` gave potentiation of -16.7

Each recorded value in this set is attributed to PubChem BioAssay AID540277.
